Hello, the source for this data is paper PMC5540273, in case you need it.

- Test system: ERBB4;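 note: KINOMEscan kinase panel screen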
- condition: concentration: 1 μM, replicates: in singlicate; n = 1
quantity: %Inh (%)
Give the quantity in %, number only.

[
  {
    "molecule": "COc1cccc(NC(=O)NCCNc2ccnc(Nc3ccc(F)cc3)n2)c1 [GSK1379879]",
    "test_system": "ERBB4",
    "quantitative_result": 20
  }
]

Query block: Output %Inh of COc1cccc(C2=C(Nc3cccc(O)c3)C(=O)NC2=O)c1 [SB-390771]
Result block: 2

Query block: Output %Inh of Cc1cc(-c2c(-c3ccc(F)cc3)ncn2CCCN2CCOCC2)nc(N)n1 [SB-222517]
Result block: 0

Query block: Output %Inh of CN(c1ccc(NC(=O)Nc2cccc(Cl)c2)cc1)c1ccnc(N)n1.Cl [GW830707]
Result block: 29

Query block: Output %Inh of Fc1cc(Cl)ccc1Nc1ccnc2cc(-c3ccc(CN4CCOCC4)o3)ccc12 [GW560109]
Result block: 25
